biological target: IL-13 (Homo sapiens (Human), UniProt P35225 35-146, limits assumed); assay: Biacore
Sequence (P35225 35-146 limits assumed): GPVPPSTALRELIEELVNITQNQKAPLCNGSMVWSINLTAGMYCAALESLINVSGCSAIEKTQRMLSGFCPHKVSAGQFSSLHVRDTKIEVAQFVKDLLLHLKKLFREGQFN
metric-name: koff
Please answer in the form of a number followed by its unit of measurement.

Recorded koff, per entry:
| binder | koff |
| --- | --- |
| M1268 (antibody, V domains shown, anti-IL-13, human IgG1; text gives the Met positions as 34 and 100; copies: 2 + 2) VH: QVTLKESGPVLVKPTETLTLTCTVSGFSLSTYGVGVGWIRQPPGKALEWLAHIWWDDVKRYNPALKSRLTISKDTSKSQVVLTMTNMDPVDTATYYCARLGSDYDVWFDYWGQGTLVTVSS VL: EIVLTQSPATLSLSPGERATLSCRASKSISKYLAWYQQKPGQAPRLLIYSGSTLQSGIPARFSGSGSGTDFTLTISSLEPEDFAVYYCQQHNEYPYTFGQGTKLEIK | 0.001 s⁻¹ |
| M444 (antibody, V domains shown, anti-IL-13, human IgG1) VH: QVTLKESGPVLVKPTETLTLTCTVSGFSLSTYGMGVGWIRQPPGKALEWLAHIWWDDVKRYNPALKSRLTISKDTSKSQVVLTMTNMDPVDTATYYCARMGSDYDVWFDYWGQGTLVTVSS VL: EIVLTQSPATLSLSPGERATLSCRASKSISKYLAWYQQKPGQAPRLLIYSGSTLQSGIPARFSGSGSGTDFTLTISSLEPEDFAVYYCQQHVWGPYTFGQGTKLEIK | 0.00022 s⁻¹ |

Quick request: koff for each listed item, please.
1. M1286 (antibody, V domains shown) VH: QVTLKESGPVLVKPTETLTLTCTVSGFSLSTYGSGVGWIRQPPGKALEWLAHIWWDDVKRYNPALKSRLTISKDTSKSQVVLTMTNMDPVDTATYYCARLGSDYDVWFDYWGQGTLVTVSS VL: EIVLTQSPATLSLSPGERATLSCRASKSISKYLAWYQQKPGQAPRLLIYSGSTLQSGIPARFSGSGSGTDFTLTISSLEPEDFAVYYCQQHDYPYTFGQGTKLEIK
2. M442 (antibody, V domains shown) VH: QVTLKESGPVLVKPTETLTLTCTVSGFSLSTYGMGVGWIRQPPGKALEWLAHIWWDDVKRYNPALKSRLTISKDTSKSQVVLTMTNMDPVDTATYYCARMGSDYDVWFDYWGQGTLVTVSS VL: EIVLTQSPATLSLSPGERATLSCRASKSISKYLAWYQQKPGQAPRLLIYSGSTLQSGIPARFSGSGSGTDFTLTISSLEPEDFAVYYCQQQDGPYTFGQGTKLEIK

1. 1.2e-05 s⁻¹
2. 5.3e-05 s⁻¹
